Tested on: Artemia salina
ASSAY_EXPLANATION: Compound was tested for its inhibitory activity using brine shrimp (Artemia salina) immobilization assay
Format: functional
Quick reference: IC100 of the listed items.

STRUCTURE_NOTATION	IC100, ng/mL
CC[C@H](C)[C@H]1O[C@]2(CC[C@@H]1C)C[C@@H]1C[C@@H](C/C=C(\C)[C@@H](OCCO[C@H]3C[C@H](OC)[C@@H](O[C@H]4C[C@H](OC)[C@@H](O)[C@H](C)O4)[C@H](C)O3)[C@@H](C)/C=C/C=C3\CO[C@@H]4[C@H](O)C(C)=C[C@@H](C(=O)O1)[C@]34O)O2	1730
CC[C@H](C)[C@H]1O[C@]2(CC[C@@H]1C)C[C@@H]1C[C@@H](C/C=C(\C)[C@@H](OCOCCO[C@@H]3C[C@H](OC)[C@@H](O[C@H]4C[C@H](OC)[C@@H](O)[C@H](C)O4)[C@H](C)O3)[C@@H](C)/C=C/C=C3\CO[C@@H]4[C@H](O)C(C)=C[C@@H](C(=O)O1)[C@]34O)O2	27800
CC[C@H](C)[C@H]1O[C@]2(CC[C@@H]1C)C[C@@H]1C[C@@H](C/C=C(\C)[C@@H](OCOCCO[C@H]3C[C@H](OC)[C@@H](O[C@H]4C[C@H](OC)[C@@H](O)[C@H](C)O4)[C@H](C)O3)[C@@H](C)/C=C/C=C3\CO[C@@H]4[C@H](O)C(C)=C[C@@H](C(=O)O1)[C@]34O)O2	27800
CC[C@H](C)[C@H]1O[C@]2(CC[C@@H]1C)C[C@@H]1C[C@@H](C/C=C(\C)[C@@H](OC(=O)OCCO[C@@H]3C[C@H](OC)[C@@H](O[C@H]4C[C@H](OC)[C@@H](O)[C@H](C)O4)[C@H](C)O3)[C@@H](C)/C=C/C=C3\CO[C@@H]4[C@H](O)C(C)=C[C@@H](C(=O)O1)[C@]34O)O2	41650
CC[C@H](C)[C@H]1O[C@]2(C=C[C@@H]1C)C[C@@H]1C[C@@H](C/C=C(\C)[C@@H](O[C@H]3C[C@H](OC)[C@@H](O[C@H]4C[C@H](OC)[C@@H](O)[C@H](C)O4)[C@H](C)O3)[C@@H](C)/C=C/C=C3\CO[C@@H]4[C@H](O)C(C)=C[C@@H](C(=O)O1)[C@]34O)O2	430
CC[C@H](C)[C@H]1O[C@]2(CC[C@@H]1C)C[C@@H]1C[C@@H](C/C=C(\C)[C@@H](OCCO[C@@H]3C[C@H](OC)[C@@H](O[C@H]4C[C@H](OC)[C@@H](O)[C@H](C)O4)[C@H](C)O3)[C@@H](C)/C=C/C=C3\CO[C@@H]4[C@H](O)C(C)=C[C@@H](C(=O)O1)[C@]34O)O2	1730
